Test system: LOX IMVI
Test: NCI tumour cell line growth inhibition, 48 h
Activity calls are given as the source filed them. No stated cut-off is given here; in the data, active = GI50 up to about 1.1 µM and inactive = higher.
The reply should be one of these categories: label 1 = active, label 0 = inactive

Worked examples, 5 compounds total:
O=C1CC2(CCCc3sccc32)C(=O)N1 (stereo not given) = label 0
Cc1cnccc1/N=N/c1ccc(N(C)C)cc1 = label 0
COc1ccc(N2C(=O)/C(=C\c3cccc(Oc4ccccc4)c3)SC2c2ccccc2)cc1 (stereo not given) = label 0
CC(Cc1ccc(O)cn1)(NC(=O)c1ccccc1)C(=O)O (stereo not given) = label 0
O=C(O/N=C1/CCC/C1=C\c1ccccc1)c1ccc([N+](=O)[O-])cc1 = label 0

Enquiry: State the result this test recorded for CCN1CC2(C)CC[C@@H](OC)C34[C@@H]2[C@H](OC(C)=O)C2(OCO[C@@]25C[C@H](OC)C2C[C@]3(O)[C@@H]5[C@H]2O)[C@H]14 .
Return: label 0

Enquiry: State the result this test recorded for Cc1ccc(C(=O)NN=C(/N=N/c2cccc(C)c2)c2ccc(N(C)C)cc2)cc1 .
Return: label 0

Enquiry: State the result this test recorded for CC1(Br)C(=O)NC(=O)N([C@H]2C[C@H](O)[C@@H](CO)O2)C1N=[N+]=[N-] (stereo not given in full) .
Return: label 0

Enquiry: State the result this test recorded for COCCOCOc1ccc(OCOCCOC)c2c1C(=O)c1ccccc1C2=O .
Return: label 0

###

System: NCI-H522
Assay: NCI tumour cell line growth inhibition, 48 h
Calls of active or inactive are those of the source. No stated cut-off is given here; in the data, active = GI50 up to about 1.1 µM and inactive = higher.
Observation type: GI50

The following compounds have reported results that may help.
CCc1[nH]nc(C(N)=O)c1/N=N/N(C)C = 37.3 µM (inactive)
O=C(CNC(=O)OCc1ccccc1)Oc1ccccc1 = > 100 µM (inactive)
O=c1c2ccccc2[nH]c2c(Cl)cc(Cl)c(N3CCCCC3)c12 = 22.1 µM (inactive)
Cc1cc2oc(C)c(S(=O)(=O)NC(=O)Nc3ccc(Cl)cc3)c(=O)c2c(=O)o1 = > 100 µM (inactive)
O=[N+]([O-])c1ccc(-c2cnc3ccccn23)cc1 = > 100 µM (inactive)
NC(=O)Nc1c(Cl)cc(S(N)(=O)=O)cc1Cl = > 100 µM (inactive)
CCC1OC2C(CC=C(C)C)=C3OC(C)(O)C(C)(CC)C(OC(C)=O)C3=C3OC(=O)C=C1C32 (stereo not drawn) = 16.6 µM (inactive)

In the following, a different compound is considered.
Enquiry: Item under review: CCn1c(SCC(=O)NNC(=S)Nc2ccc(F)cc2)nc2ccccc2c1=O . Reported GI50?
Return: 48 µM (inactive)

###

Test system: OVCAR-8
Assay: NCI tumour cell line growth inhibition, 48 h
Active and inactive are the calls of the source. Cut-off read from the data, not from the text of the source: active = GI50 up to about 1.1 µM and inactive = higher.
# GI50 per entry

O=[N+]([O-])c1ccc(-c2cnc3ccccn23)cc1 = > 100 µM (inactive)
O=C1Cc2c(-c3cccs3)cc(-c3ccccc3)nc2-c2ccccc2N1 = 1.45 µM (inactive)

In the following, a different molecule is considered.
Enquiry: Item under review: Cc1nnc2n1N=C(c1ccccc1)C(c1ccccc1)S2 (stereo not drawn) . Reported GI50?
Return: 39.4 µM (inactive)

###

Tested on: MOLT-4
Experiment: NCI tumour cell line growth inhibition, 48 h
Activity calls are given as the source filed them. Cut-off read from the data, not from the text of the source: active = GI50 up to about 1.1 µM and inactive = higher.
The reply should be one of these categories: true (1) for active, false (0) for inactive

Worked examples, 4 compounds total:
O=C1NC(=O)C(CCO)(c2ccccc2)C(=O)N1 = false (0)
CCCCCCCCCCCCCCC1OC(=O)c2ccccc21 (stereo not drawn) = false (0)
O=C1OCC(c2ccc(Cl)cc2)=C1Cl = false (0)
Cc1cc2oc(=O)c(Cl)c(Cl)c2c(C)c1Cl = false (0)

Enquiry: State the result this test recorded for CN(C)CCCOc1nc2c(c(=O)n(C)c(=O)n2C)n1C.SC1=NC=NC2=NC=NC12 .
Return: true (1)

Enquiry: State the result this test recorded for Cn1nc(-c2ccccc2NC(=O)C(F)(F)F)c(=O)n(C)c1=S .
Return: false (0)

Enquiry: State the result this test recorded for N#Cc1nc(C(=O)c2ccccc2)oc1N .
Return: false (0)

Enquiry: State the result this test recorded for Cc1nc2ccccc2c(=O)n1NC(=O)c1ccccc1[N+](=O)[O-] .
Return: false (0)

###

System: A549
Test: NCI tumour cell line growth inhibition, 48 h
The source made the active and inactive calls. Rule as the data show it: active = GI50 up to about 1.1 µM and inactive = higher.
Observation type: GI50

N#Cc1ccc(C2SCc3nc4ccccc4n32)cc1 (stereo not given) = 81.8 µM (inactive)
COC1OC(CO)C(O)C(OC(C)=O)C1NC(=O)N(CCCl)N=O (stereo not given) = > 100 µM (inactive)
CCOC(=O)c1cn(-c2ccccc2)c(=S)n2c1nc1ccccc12 = 42.9 µM (inactive)
CC(Cc1ccc(O)cn1)(NC(=O)c1ccccc1)C(=O)O (stereo not given) = > 100 µM (inactive)

In the following, a different molecule is considered.
Enquiry: Item under review: COc1ccccc1-c1cc(O)c2cc3c(cc2n1)OCO3 . Reported GI50?
Return: 35.6 µM (inactive)

###

Tested on: NCI/ADR-RES
Test: NCI tumour cell line growth inhibition, 48 h
Activity calls are given as the source filed them. No stated cut-off is given here; in the data, active = GI50 up to about 1.1 µM and inactive = higher.
Observation type: GI50

CCOC(=O)c1cn(-c2ccccc2)c(=S)n2c1nc1ccccc12 = 25.5 µM (inactive)
COC(=O)c1c(OC(C)=O)ccc2c1c1c(OC(C)=O)c3ccccc3c(OC(C)=O)c1n2C = 30.1 µM (inactive)
CSc1nc(Br)nc2c1ncn2C1CC(Oc2ccc(C)cc2)C(COc2ccc(C)cc2)O1 (configuration not stated) = > 100 µM (inactive)

Enquiry: Item under review: NC(=O)c1ccc(NS(=O)(=O)c2ccc(N)cc2)nc1 . Reported GI50?
Return: > 100 µM (inactive)

Enquiry: Item under review: O=C(Cc1ccccc1)N/N=C(/CCN1CCCC1)CC(c1ccccc1)c1c(O)c2ccccc2oc1=O (configuration not stated) . Reported GI50?
Return: 55.8 µM (inactive)

Enquiry: Item under review: CN1C/C(=C\c2ccc(Cl)cc2)C(=O)/C(=C/c2ccc(Cl)cc2)C1 . Reported GI50?
Return: 1.37 µM (inactive)

Enquiry: Item under review: Cc1cc(/N=C/c2ccc(N(C)C)cc2)n(-c2ccccc2)n1 . Reported GI50?
Return: 24.7 µM (inactive)

###

System: LOX IMVI
Assay: NCI tumour cell line growth inhibition, 48 h
The source made the active and inactive calls. Rule as the data show it: active = GI50 up to about 1.1 µM and inactive = higher.
The reply should be one of these categories: active, inactive

Worked examples, 8 molecules total:
CSCCC(NC(=O)OCc1ccccc1)P(=O)(O)c1ccccc1 (stereo not given) = inactive
COc1ccc2c(c1)C(=O)Cc1ccccc1CC2 = inactive
O=S(=O)(Sc1ccc(Cl)cc1)c1ccc(Cl)cc1 = inactive
COC(=O)c1ccc([N+](=O)[O-])c(O)c1 = inactive
CCOc1ccc(/N=C/c2ccc3ccccc3n2)cc1 = inactive
NC1=NC(=O)[C@H](CSCc2ccccc2)N1C(=O)OCc1ccccc1 = inactive
CC(C)CNc1nc(N)nc(O)c1NC=O = inactive
COC1OC(C)C(NC(=O)OCC(Cl)(Cl)Cl)C2OC(C)(C)OC12 (stereo not given) = inactive

Enquiry: State the result this test recorded for CC(=O)Nc1ccc(/C=C2/NC(=S)N(/C=C3\C(=O)Oc4ccccc4C3=O)C2=O)cc1 .
Return: inactive

Enquiry: State the result this test recorded for CC(CC(=O)O)(CC(=O)O)c1ccccc1 .
Return: inactive

Enquiry: State the result this test recorded for Nc1nc(NNc2cccc(F)c2)cc(=O)[nH]1 .
Return: inactive

Enquiry: State the result this test recorded for Cc1c(C(=O)O)n(C)c(=O)n(C)c1=O .
Return: inactive

Enquiry: State the result this test recorded for CCOc1cc(-c2nc3ccccn3c2/N=C/c2cc([N+](=O)[O-])cc([N+](=O)[O-])c2O)ccc1O .
Return: inactive

Enquiry: State the result this test recorded for CC1=NN(C(=O)Cc2ccccc2)C(=O)/C1=C/c1c(O)ccc2ccccc12 .
Return: inactive

Enquiry: State the result this test recorded for CN1C/C(=C\c2ccc(Cl)cc2)C(=O)/C(=C/c2ccc(Cl)cc2)C1 .
Return: active

Enquiry: State the result this test recorded for CCn1c(SCC(=O)NNC(=S)Nc2ccc(F)cc2)nc2ccccc2c1=O .
Return: inactive

Enquiry: State the result this test recorded for O=C(Nc1ccccc1)OC1OC(COC(=O)c2ccccc2)C(OC(=O)c2ccccc2)C1OS(=O)(=O)c1ccc([N+](=O)[O-])cc1 (stereo not given) .
Return: inactive

Enquiry: State the result this test recorded for CCCCN(C(=O)c1ccccc1)C1CCC(=O)c2[nH]c3ccccc3c21 (stereo not given) .
Return: inactive

Enquiry: State the result this test recorded for CC(=O)O[C@H]1C(=O)[C@@]2(C)[C@H]([C@H](OC(=O)c3ccccc3)[C@]3(O)C[C@H](OC(=O)[C@H](OC(=O)OCCC(O)CO)[C@@H](NC(=O)c4ccccc4)c4ccccc4)C(C)=C1C3(C)C)[C@]1(OC(C)=O)CO[C@@H]1C[C@@H]2O (stereo not given in full) .
Return: active

Enquiry: State the result this test recorded for COc1ccc2ccccc2c1C1OC(=O)c2ccccc21 (stereo not given) .
Return: inactive
